Values from patent US10278965B2

assay: Measurement of fluorescent property of compound; assay type: physicochemical; details: 5 μM DMSO solution
// Fluorescence wavelength λem lookup, one value per entry
Respond numerically; units are nm and should not be typed.

> print(dat)
                        structure.as.smiles  quantitative.result
1  CCN1/C(=C/C=C2\CCCC(/C=C/C3=[N+](CC)c4ccc(OC)cc4C3(C)C)=C2Cl)C(C)(C)c2cc(OC)ccc21                  825
2  CCC(/C=C1\Sc2ccccc2N1CC)=C\c1sc2ccccc2[n+]1CC.[I-]                  569
3  CCN1C=C/C(=C/C=C/c2cc[n+](CC)c3ccccc23)c2ccccc21                  715
4  CCCCCN1/C(=C\C=C\c2oc3ccccc3[n+]2CCCCC)Oc2ccccc21                  509
5  CCN1C=C/C(=C/C=C/c2sc3ccccc3[n+]2CC)c2ccccc21.[I-]                  661

Using known records, supply Fluorescence wavelength λem for CCCCN1/C(=C/C=C2\CCCC(/C=C/C3=[N+](CCCC)c4ccccc4C3(C)C)=C2Cl)C(C)(C)c2ccccc21
816

Using known records, supply Fluorescence wavelength λem for CCN1/C(=C\C=C\c2sc3ccccc3[n+]2CC)Sc2ccccc21
575

Using known records, supply Fluorescence wavelength λem for CCN1/C(=C\C=C\C2=[N+](CC)c3ccccc3C2(C)C)C(C)(C)c2ccccc21.[I-]
570

====

Assay: Measurement of fluorescent property of compound
Type: physicochemical
Conditions: 5 μM DMSO solution
Description: The excitation wavelength and fluorescence wavelength of the compound were measured by a FL4500 spectrofluorometric measuring machine manufactured by Hitachi High-Technologies Corporation.
Label scheme for Excitation wavelength λex: lower than 700 nm is 0, 700 nm and above is 1.

Would you please look over these solved cases?
> print(dat)
                        structure.as.smiles  label
1  CCCN1\C(=C/C=C/C=C/C2=[N+](CCC)c3ccccc3C2(C)C)C(C)(C)c2ccccc21      0
2  CCCCCCCN1/C(=C\C=C\c2oc3ccccc3[n+]2CCCCCCC)Oc2ccccc21      0

Tell me whether Excitation wavelength λex is at least 700 nm here: CCN1/C(=C\C=C\C2=[N+](CC)c3ccccc3C2(C)C)C(C)(C)c2ccccc21.[I-]
0

Tell me whether Excitation wavelength λex is at least 700 nm here: CCN1/C(=C\C=C\c2ccc3ccccc3[n+]2CC)C=Cc2ccccc21.[I-]
0

Tell me whether Excitation wavelength λex is at least 700 nm here: CCN1/C(=C\C(C)=C\c2sc3ccccc3[n+]2CC)Sc2ccccc21
0

Tell me whether Excitation wavelength λex is at least 700 nm here: CN1/C(=C/C=C2\CCCC(/C=C/C3=[N+](C)c4ccc5ccccc5c4C3(C)C)=C2Cl)C(C)(C)c2c1ccc1ccccc21
1

Tell me whether Excitation wavelength λex is at least 700 nm here: CCN1/C(=C\C=C\C2=[N+](CC)c3ccccc3C23CCCCC3)C2(CCCCC2)c2ccccc21
0

Tell me whether Excitation wavelength λex is at least 700 nm here: CCCCCN1/C(=C\C=C\c2oc3ccccc3[n+]2CCCCC)Oc2ccccc21
0

====

test system: Prostatic cancer cells, PC-3; assay: Cancer cell inhibitory (growth suppressive) action against prostatic cancer cells, CellTiter-Glo viable cell count; format: cell-based; details: PC-3, 10 μg/mL, 24 hours
Label scheme for Cancer cell growth rate (%): lower than 10% is F, 10% and above is T.

Would you please look over these solved cases?
> print(dat)
                                   compound           experimental.target  label
1  CCCCN1/C(=C/C=C2\CCCC(/C=C/C3=[N+](CCCC)c4ccccc4C3(C)C)=C2Cl)C(C)(C)c2ccccc21  Prostatic cancer cells, PC-3      T
2  CN1/C(=C\C=C\C2=[N+](C)c3ccc4ccccc4c3C2(C)C)C(C)(C)c2c1ccc1ccccc21  Prostatic cancer cells, PC-3      T

Tell me whether Cancer cell growth rate (%) is at least 10% here: CCN1/C(=C\C=C\c2sc3ccccc3[n+]2CC)Sc2ccccc21
T

Tell me whether Cancer cell growth rate (%) is at least 10% here: CCCCCN1/C(=C\C=C\c2oc3ccccc3[n+]2CCCCC)Oc2ccccc21
F

Tell me whether Cancer cell growth rate (%) is at least 10% here: O=C(O)CN1/C(=C\C2=C(Cl)C(=C/c3sc4ccccc4[n+]3CC(=O)O)/CCC2)Sc2ccccc21 [Comparative compound 3, reference compound]
T

Tell me whether Cancer cell growth rate (%) is at least 10% here: CCC(=C\c1sc2c3ccccc3ccc2[n+]1CC)/C=C1/Sc2c(ccc3ccccc23)N1CC.[I-]
T

====

test: Measurement of fluorescent property of compound; type: physicochemical; settings: 5 μM DMSO solution
Assay readout: Excitation wavelength λex (nm)
Respond numerically; units are nm and should not be typed.

Recorded Excitation wavelength λex, per entry:
> print(dat)
                        structure.as.smiles  endpoint.unit  quantitative.result
1  CCN1C=C/C(=C/C=C/c2cc[n+](CC)c3ccccc23)c2ccccc21             nm                  679
2  CC(C)CCN1/C(=C/C=C/C=C/C2=[N+](CCC(C)C)c3ccc4ccccc4c3C2(C)C)C(C)(C)c2c1ccc1ccccc21             nm                  688
3  CCN1/C(=C\C(C)=C\c2sc3c4ccccc4ccc3[n+]2CC)Sc2c1ccc1ccccc21             nm                  354
4  CCCCN1/C(=C/C=C2\CCCC(/C=C/C3=[N+](CCCC)c4ccccc4C3(C)C)=C2c2ccccc2)C(C)(C)c2ccccc21             nm                  774
5  CN1/C(=C/C=C/C=C/C2=[N+](C)c3ccc4ccccc4c3C2(C)C)C(C)(C)c2cc(Cl)ccc21             nm                  670

Using known records, supply Excitation wavelength λex for CCN1C=C/C(=C/C=C/c2ccc3ccccc3[n+]2CC)c2ccccc21.[I-]
665

Using known records, supply Excitation wavelength λex for CCN1C=C/C(=C/C=C/c2oc3ccccc3[n+]2CC)c2ccccc21
571

Using known records, supply Excitation wavelength λex for CCOC(=O)C1(C(=O)OCC)CC(/C=C/C2=[N+](CC)c3ccccc3C2(C)C)=CC(=C/C=C2/N(CC)c3ccccc3C2(C)C)/C1
650

Using known records, supply Excitation wavelength λex for CCN1/C(=C\C=C\c2oc3ccccc3[n+]2CC)Oc2ccccc21
491

Using known records, supply Excitation wavelength λex for CCC(/C=C1\Sc2ccccc2N1CC)=C\c1sc2ccccc2[n+]1CC.[I-]
563

Using known records, supply Excitation wavelength λex for CN1/C(=C/C=C2\CCCC(/C=C/C3=[N+](C)c4ccccc4C3(C)C)=C2Sc2ccccc2)C(C)(C)c2ccccc21
804

Using known records, supply Excitation wavelength λex for CCN1\C(=C/C=C/C=C/c2oc3ccccc3[n+]2CC)Oc2ccccc21
589

Using known records, supply Excitation wavelength λex for CCC(=C\c1sc2c3ccccc3ccc2[n+]1CC)/C=C1/Sc2c(ccc3ccccc23)N1CC.[I-]
344

Using known records, supply Excitation wavelength λex for CCN1C=C/C(=C/C=C/c2sc3ccccc3[n+]2CC)c2ccccc21.[I-]
638

Using known records, supply Excitation wavelength λex for CCN1/C(=C\C=C\c2sc3ccccc3[n+]2CC)Sc2ccccc21
485

====

// Excitation wavelength λex lookup, one value per entry
experiment: Measurement of fluorescent property of compound; assay type: physicochemical; conditions: 5 μM DMSO solution
Respond numerically; units are nm and should not be typed.

Recorded Excitation wavelength λex, per entry:
> print(dat)
                        structure.as.smiles              assay.readout  endpoint.unit  quantitative.result
1  CCC(=C\c1sc2ccc3ccccc3c2[n+]1CC)/C=C1/Sc2ccc3ccccc3c2N1CC  Excitation wavelength λex             nm                  586
2  CCCCN1/C(=C/C=C2\CCCC(/C=C/C3=[N+](CCCC)c4ccccc4C3(C)C)=C2Cl)C(C)(C)c2ccccc21  Excitation wavelength λex             nm                  797
3  CN1\C(=C/C=C/C=C/C2=[N+](C)c3ccc4ccccc4c3C2(C)C)C(C)(C)c2c1ccc1ccccc21  Excitation wavelength λex             nm                  684

Now examine the next entry.
Using known records, supply Excitation wavelength λex for CCN1/C(=C/C=C2\CCCC(/C=C/C3=[N+](CC)c4ccc(OC)cc4C3(C)C)=C2Cl)C(C)(C)c2cc(OC)ccc21
819
